Tested on: Mus musculus
experiment: Anticonvulsant activity in ip dosed Mus musculus Swiss albino (mouse) assessed as protection against subcutaneous pentylenetetrazole-induced seizures after 0.5 hr
Format: functional
experimental_conditions: read-out: MED
test_readout: minimal effective dose (mg/kg)

> print(dat)
                                   compound  measurement
1  COc1cc2c(cc1OC)C(=O)C(CC1CCN(C(=S)Nc3ccccc3C)CC1)C2 (stereo not drawn)          300
2  COc1cc2c(cc1OC)C(=O)C(CC1CCN(C(=S)Nc3ccc(Cl)cc3)CC1)C2 (stereo not drawn)          100
3  COc1cc2c(cc1OC)C(=O)C(CC1CCN(C(=S)Nc3ccc(C)cc3)CC1)C2 (stereo not drawn)          100
4  NC(=O)N1c2ccccc2C=Cc2ccccc21 [CARBAMAZEPINE]          300
5  COc1cc2c(cc1OC)C(=O)C(CC1CCN(C(=S)Nc3ccccc3Cl)CC1)C2 (stereo not drawn)          300
6  COc1cc2c(cc1OC)C(=O)C(CC1CCN(C(=S)Nc3ccc([N+](=O)[O-])cc3)CC1)C2 (stereo not drawn)          100
7  CCCCNC(=S)N1CCC(CC2Cc3cc(OC)c(OC)cc3C2=O)CC1 (stereo not drawn)          100
8  COc1cc2c(cc1OC)C(=O)C(CC1CCN(C(=S)Nc3ccccc3)CC1)C2 (stereo not drawn)          100

====

Tested on: Mus musculus
experiment: Neurotoxicity in ip dosed Mus musculus Swiss albino (mouse) assessed as minimal motor impairment after 0.5 hr by rotorod test
Type: toxicity, organism-based
experimental_conditions: in vivo
MTC values for the compounds below.
test_readout: MTC

> print(dat)
                                    compound  assayed.target  measurement
 1  NC(=O)N1c2ccccc2C=Cc2ccccc21 [CARBAMAZEPINE]    Mus musculus    300 mg/kg
 2  COc1cc2c(cc1OC)C(=O)C(CC1CCN(C(=S)Nc3ccccc3)CC1)C2 (stereo not given)    Mus musculus    300 mg/kg
 3  COc1cc2c(cc1OC)C(=O)C(CC1CCN(C(=S)Nc3ccccc3C)CC1)C2 (stereo not given)    Mus musculus    100 mg/kg
 4  COc1cc2c(cc1OC)C(=O)C(CC1CCN(C(=S)Nc3ccc(C)cc3)CC1)C2 (stereo not given)    Mus musculus    300 mg/kg
 5  CCCNC(=S)N1CCC(CC2Cc3cc(OC)c(OC)cc3C2=O)CC1 (stereo not given)    Mus musculus    300 mg/kg
 6         O=C1NC(=O)C(c2ccccc2)(c2ccccc2)N1    Mus musculus    100 mg/kg
 7  CCCCNC(=S)N1CCC(CC2Cc3cc(OC)c(OC)cc3C2=O)CC1 (stereo not given)    Mus musculus    300 mg/kg
 8  COc1cc2c(cc1OC)C(=O)C(CC1CCN(C(=S)Nc3ccccc3Cl)CC1)C2 (stereo not given)    Mus musculus    300 mg/kg
 9  COc1cc2c(cc1OC)C(=O)C(CC1CCN(C(=S)Nc3ccc([N+](=O)[O-])cc3)CC1)C2 (stereo not given)    Mus musculus    300 mg/kg
10  COc1cc2c(cc1OC)C(=O)C(CC1CCN(C(=S)Nc3ccc(Cl)cc3)CC1)C2 (stereo not given)    Mus musculus    100 mg/kg
